# experimental.details: recombinant barcode read abundance after kanamycin selection (control-corrected) (log10(CPM+1)); higher = more efficient recombination; sequences stand for … in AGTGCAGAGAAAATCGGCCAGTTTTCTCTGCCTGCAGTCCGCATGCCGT…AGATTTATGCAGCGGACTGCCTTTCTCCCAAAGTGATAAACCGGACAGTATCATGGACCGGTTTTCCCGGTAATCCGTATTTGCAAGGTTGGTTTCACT; site = the 11-nt target;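 further: IS621 recombinase and bridge RNA in Escherichia coli cells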
// class 0 strictly below 1 in recombinant barcode read abundance (log10); class 1 otherwise

Example cases with answers are listed next.
>>> class_assignment("CTGTCTACTTGGGTTCTAACCTGTTGCCT (site CTGTCTACTAG)")
"class 0"
>>> class_assignment("TATGCTACTTGGGTTCTAACCTGTTGCAT (site AATGCTACTAT)")
"class 1"
>>> class_assignment("TCTGGGGCTTGGGTTCTAACCTGTTGCGG (site TCTGGGGCTCT)")
"class 1"
>>> class_assignment("CTCGTACCTTGGGTTCTAACCTGTTGCGG (site CTCGTACCTCC)")
"class 1"

Please find the next sequence below.
Determine whether this sequence has recombinant barcode read abundance (log10) no lower than 1: ACGCGAGCTTGGGTTCTAACCTGTTGCGG (site ACGCGAGCTCA)
class 0

----------
# experimental.details: recombinant barcode read abundance after kanamycin selection (control-corrected) (log10(CPM+1)); higher = more efficient recombination; sequences stand for … in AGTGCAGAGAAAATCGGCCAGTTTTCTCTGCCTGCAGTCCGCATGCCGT…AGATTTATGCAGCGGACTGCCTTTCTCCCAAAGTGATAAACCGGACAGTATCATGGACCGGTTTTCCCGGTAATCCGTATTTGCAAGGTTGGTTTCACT; site = the 11-nt target
Assignment: determine reported recombinant barcode read abundance (log10) for the given sequences.
Give bare numbers.

Here are 10 sequences together with their reported answers.
>>> test_result("AGAACTCCTTGGGTTCTAACCTGTTGCTG (site AGAACTCCTCA)")
0.323
>>> test_result("CAATAGACTTGGGTTCTAACCTGTTGCCT (site CAATAGACTAG)")
1.19
>>> test_result("AGCCTGCCTTGGGTTCTAACCTGTTGCCT (site AGCCTGGCTAG)")
0.549
>>> test_result("TAGACTGCTTGGGTTCTAACCTGTTGCCT (site TAGACTGCTAG)")
1.04
>>> test_result("TACCTGACTTGGGTTCTAACCTGTTGCCT (site TACCTGACTAG)")
0.688
>>> test_result("GGACGCACTTGGGTTCTAACCTGTTGCGG (site GGACGCACTCC)")
2.4
>>> test_result("AGTATACCTTGGGTTCTAACCTGTTGCTG (site AGTATACCTCA)")
1.31
>>> test_result("GTCAGCCCTTGGGTTCTAACCTGTTGCTG (site GACAGCCCTCA)")
0.379
>>> test_result("GACGCCTCTTGGGTTCTAACCTGTTGCGC (site TTGAAACCTAG)")
0.26
>>> test_result("TGACACACTTGGGTTCTAACCTGTTGCTG (site TGAGACACTCA)")
0.127

Dear reader, for each entry below, please note its recombinant barcode read abundance (log10).
1. GCATCTCCTTGGGTTCTAACCTGTTGCCT (site ACATCTCCTAG)
2. TTGCAAACTTGGGTTCTAACCTGTTGCCT (site TTGCCAACTAG)
3. GATAGAACTTGGGTTCTAACCTGTTGCTT (site GATAGAACTAA)
4. ACCCAACCTTGGGTTCTAACCTGTTGCCT (site ACCCAACCTAG)

0.4
0.0256
0.94
1.58
